# measured-on: Cytochrome P450 3A4 (Homo sapiens, UniProt P08684)
# Sequence (P08684 whole entry): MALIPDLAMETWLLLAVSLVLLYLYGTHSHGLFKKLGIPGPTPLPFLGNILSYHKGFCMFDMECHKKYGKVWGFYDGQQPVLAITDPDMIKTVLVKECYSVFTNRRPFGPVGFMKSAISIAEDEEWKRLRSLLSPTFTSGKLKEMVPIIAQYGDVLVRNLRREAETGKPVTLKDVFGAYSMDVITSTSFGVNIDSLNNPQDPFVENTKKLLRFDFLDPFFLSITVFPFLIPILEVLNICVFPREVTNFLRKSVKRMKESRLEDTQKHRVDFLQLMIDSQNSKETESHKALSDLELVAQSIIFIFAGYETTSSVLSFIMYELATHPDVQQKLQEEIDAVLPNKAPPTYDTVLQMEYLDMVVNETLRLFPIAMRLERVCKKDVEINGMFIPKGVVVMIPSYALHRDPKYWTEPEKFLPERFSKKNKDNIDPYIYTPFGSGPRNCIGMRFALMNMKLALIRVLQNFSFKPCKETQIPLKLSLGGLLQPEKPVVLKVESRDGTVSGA
pIC50: −log10 of the molar value.
endpoint-label: pIC50

Query O=C(Nc1ccncc1)Nc1ccc(-c2nc(N3CCOCC3)nc(N3C4CCC3COC4)n2)cc1 [PKI-179] yields pIC50 of < 4.52

* * *

# measured-on: Phosphatidylinositol 4,5-bisphosphate 3-kinase catalytic subunit beta isoform (Homo sapiens, UniProt P42338)
# Sequence (P42338 whole entry, canonical isoform): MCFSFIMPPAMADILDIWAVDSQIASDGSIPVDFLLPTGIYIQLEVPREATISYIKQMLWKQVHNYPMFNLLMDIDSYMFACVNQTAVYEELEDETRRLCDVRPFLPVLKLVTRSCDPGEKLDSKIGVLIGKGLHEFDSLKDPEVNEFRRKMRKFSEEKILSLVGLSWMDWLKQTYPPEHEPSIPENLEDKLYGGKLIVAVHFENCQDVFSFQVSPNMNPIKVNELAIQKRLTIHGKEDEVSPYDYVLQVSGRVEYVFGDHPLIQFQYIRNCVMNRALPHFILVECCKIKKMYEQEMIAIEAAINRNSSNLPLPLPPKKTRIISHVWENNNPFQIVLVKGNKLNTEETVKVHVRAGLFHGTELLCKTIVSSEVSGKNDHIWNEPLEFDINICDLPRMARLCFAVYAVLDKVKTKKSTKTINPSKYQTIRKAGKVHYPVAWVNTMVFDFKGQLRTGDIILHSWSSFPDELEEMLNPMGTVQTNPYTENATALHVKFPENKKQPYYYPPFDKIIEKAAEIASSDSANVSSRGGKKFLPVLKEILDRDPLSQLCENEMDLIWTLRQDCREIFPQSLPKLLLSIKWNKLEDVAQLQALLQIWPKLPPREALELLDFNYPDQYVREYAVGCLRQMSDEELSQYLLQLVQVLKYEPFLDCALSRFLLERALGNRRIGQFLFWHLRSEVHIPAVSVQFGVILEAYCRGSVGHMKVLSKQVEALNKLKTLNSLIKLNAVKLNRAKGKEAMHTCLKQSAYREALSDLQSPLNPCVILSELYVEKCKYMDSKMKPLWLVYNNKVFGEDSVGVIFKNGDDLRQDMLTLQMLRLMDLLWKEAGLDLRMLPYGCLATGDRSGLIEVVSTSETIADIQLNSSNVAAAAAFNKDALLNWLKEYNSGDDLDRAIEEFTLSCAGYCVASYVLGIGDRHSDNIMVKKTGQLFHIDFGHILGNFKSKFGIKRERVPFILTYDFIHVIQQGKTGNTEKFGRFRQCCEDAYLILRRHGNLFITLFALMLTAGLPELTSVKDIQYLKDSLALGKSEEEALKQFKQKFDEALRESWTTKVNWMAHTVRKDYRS
# protocol: Inhibition of PI3K-beta
endpoint-label: pIC50
// pIC50: -log10(molar conc.)

Query `O=C(Nc1ccncc1)Nc1ccc(-c2nc(N3CCOCC3)nc(N3C4CCC3COC4)n2)cc1` yields pIC50 of 7.62
